target: Calmodulin-1 (Homo sapiens) (UniProt P0DP23); assay: calcium-bound CALM1 binders on microarrays, profiling panel, artefact control for SMM control-protein annotation, biochemical, small-molecule microarray, Cy5-labelled CALM1, plus calcium (AID 1112); settings: Cy5-CALM1 binding fluorescence, higher = more signal;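 also: score merges spot fluorescence with signal to noise from triplicate slides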
Metric: composite z-score
Respond with the number and no other words.

molecule=CC[C@@H](O[Si](C#C[Si](C(C)C)(C(C)C)C(C)C)(C(C)C)C(C)C)c1cn([C@H](CO)Cc2ccccc2)nn1 result=-0.24
molecule="CCCCCN1CC=CC23O[C@@H]4/C=C\\CCCOC(=O)C4[C@H]2C(=O)N(CCO)[C@@H]3C1=O (stereo partly drawn)" result=0.463
molecule=COC(=O)C(CC#Cc1ccc2c(c1)[C@]1(C(=O)N2)[C@H](C(N)=O)[C@H]2C(=O)O[C@H](c3ccccc3)[C@H](c3ccccc3)N2[C@@H]1c1ccccc1OCCO)C(=O)OC result=0.237

Next up:
Any idea what its composite z-score is? The molecule is C[C@]1(C(=O)NC2CC2)c2ccccc2C(=O)N(Cc2cc(F)cc(C(F)(F)F)c2)[C@H]1c1ccc(CO)cc1 0.0045

###

Below, each entry is listed alongside its reported z-score.
assay: E. coli growth modulation, two-sided OD650, primary screen, E. coli filamentation project, strain DRC41, 24 h (AID 1093); details: OD650, 24 h, higher = more signal, called active from +8 up or from −8 down;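 also: MC1000 strain lacking acrAB efflux and sulA so SOS filamentation is blocked; test concentration not given here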
Respond with the number and no other words.

# count of solved cases: 4
molecule=Cc1ccc(S(=O)(=O)N2[C@@H](c3ccccc3)C(C(=O)O)=C[C@H]2C(C)(C)C)cc1 metric=z-score result=-0.231
molecule="CCOC(=O)C1=CCC(c2ccncc2)N(S(=O)(=O)c2ccc(C)cc2)C1 (stereo not given)" metric=z-score result=0.336
molecule=COCCCNC(=O)[C@@]1(Cc2ccccc2I)c2ccccc2C(=O)N(Cc2ccccc2C(F)(F)F)[C@H]1c1ccc(CO)cc1 metric=z-score result=-0.627
molecule="O=C1OCC=C[C@H]2OC34C=CCN(Cn5nnc6ccccc65)C(=O)[C@H]3N(CCO)C(=O)[C@@H]4[C@@H]12 (stereo not given in full)" metric=z-score result=-0.55

Any idea what its z-score is? The molecule is COc1c(C)cc(-c2cc3c(c(CCc4ccccc4)n2)[Si](C(C)C)(C(C)C)O[C@H]3c2ccccc2)cc1C -0.899

Any idea what its z-score is? The molecule is COc1cc(Cc2cc3c(c(CCc4ccccc4)n2)[Si](C(C)C)(C(C)C)O[C@H]3c2ccccc2)cc(OC)c1OC -0.637

Any idea what its z-score is? The molecule is CC1C2C(CCCO)=CC(C3C(=O)N(C)C(=O)C23)N1Cc1cccc(OC(F)(F)F)c1 (stereo not given) 0.964

Any idea what its z-score is? The molecule is O=C1NC(=O)C2C1C=CC(C(O)C1CCCCC1)N2Nc1ccccn1 (stereo not given) -1.5

Any idea what its z-score is? The molecule is CC(C)(C)OC(=O)N1[C@@H](C=C(Br)Br)COC1(C)C 1.74

Any idea what its z-score is? The molecule is COc1ccc(NN2C(C(O)c3ccc(F)cc3)C=CC3C(=O)N(C4CCCCC4)C(=O)C32)cc1 (stereo not given) -0.637

Any idea what its z-score is? The molecule is C=CCNC(=O)[C@H]1[C@@H]2C(=O)O[C@@H](c3ccccc3)[C@@H](c3ccccc3)N2[C@@H](c2ccc(OCCO)cc2)[C@]12C(=O)N(C(=O)OCCOC)c1ccc(C#CCC(C(=O)OC)C(=O)OC)cc12 -0.0319

###

test: E. coli acrAB mutant growth effects, primary screen, E. coli filamentation inducers, strain DRC39, OD650, 24 h (AID 1178); settings: higher = more signal, called active from +8 up or from −8 down;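 also: growth measured as culture turbidity by optical density at 650 nm; test concentration not given here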
Metric: z-score
Respond with the number and no other words.

molecule=O=C1O[C@H](c2ccccc2)[C@H](c2ccccc2)N2[C@H]1[C@@H](C(=O)N1CCN(c3ncccn3)CC1)[C@]1(C(=O)Nc3ccc(C#CC4(O)CCCCCC4)cc31)[C@H]2c1ccc(O)cc1 metric=z-score result=0.851

Next up:
Any idea what its z-score is? The molecule is CC(C)C[C@H]1NC(=O)CNC(=O)[C@@]23C(=O)N[C@@H](Cc4ccccc4)C2[C@H](C)[C@@]2(C)O[C@H]2C3/C=C/C/C=C\CNC1=O (stereo partly drawn) -0.288

###

test: small-molecule binders of probe aLefty1, primary screen, biochemical, small-molecule microarray, 635/667 nm fluorescence (AID 1153); conditions: higher = more signal;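 also: score merges spot fluorescence with signal-to-noise ratio from the scanned slide images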
Below, each entry is listed alongside its reported composite z-score.
Respond with the number and no other words.

Any idea what its composite z-score is? The compound is COc1cc2c(cc1OC)CN(C(=O)[C@@H]1[C@H]3C(=O)O[C@H](c4ccccc4)[C@H](c4ccccc4)N3[C@H](c3ccc(O)cc3)[C@@]13C(=O)Nc1ccc(C#CC4=CCCCC4)cc13)CC2 0.298

Any idea what its composite z-score is? The compound is COc1ccc([Si](C)(C)[C@H]2[C@H](CC(=O)N(CCO)Cc3ccccc3)O[C@@]3(C(=O)N(Cc4cccc(N5CCCCC5=O)c4)c4ccccc43)[C@@H]2C)cc1 0.109

Any idea what its composite z-score is? The compound is C=CC[C@H](O)c1ccc(O)c(F)c1 -0.555

Any idea what its composite z-score is? The compound is CCCCN1CC=CC23O[C@@H]4/C=C\CCCOC(=O)C4[C@H]2C(=O)N(CCCCCCO)[C@@H]3C1=O (some centres not stated) 0.0927

Any idea what its composite z-score is? The compound is COC(=O)[C@@]1(Cc2ccccc2)[C@H]2c3cc(C(=O)N(C)C)n(Cc4ccc(Cl)c(C(F)(F)F)c4)c3C[C@H]2CN1C(=O)c1ccccc1 0.936

Any idea what its composite z-score is? The compound is CN1C(=O)C2C=CC(C(O)c3ccc(I)cc3)N(N(c3ccccc3)c3ccccc3)C2C1=O (configuration not stated) 0.193

Any idea what its composite z-score is? The compound is CC1(C)OB(/C=C\CC(OC(=O)c2ccncc2)c2ccccc2)OC1(C)C (configuration not stated) 1.24

###

test: P. aeruginosa biofilm formation inhibitors, primary screen, strain PAO1, LB-PBS medium, absorbance 600 nm (AID 1176); also: test concentration not given here; conditions: P. aeruginosa PAO1 growth/biofilm, A600, 12 h; higher = more signal
Metric: z-score
Respond with the number and no other words.

# count of solved cases: 4
compound=COc1ccc([Si](C)(C)[C@H]2[C@H](CC(=O)N(CCO)Cc3ccccc3)O[C@@]3(C(=O)N(c4ccccc4)c4ccccc43)[C@@H]2C)cc1 metric=z-score result=0.838
compound="CCCCCCCCCCC(O)C1C=CC2C(=O)N(C)C(=O)C2N1Nc1ccccc1 (stereo not drawn)" metric=z-score result=1.58
compound=COc1cccc(C)c1NC(=O)O[C@H]1[C@H](OC(=O)Nc2ccc3c(c2)OCO3)[C@H](OC(=O)Nc2ccc3c(c2)OCO3)[C@@H](OC)O[C@@H]1CO metric=z-score result=0.606
compound=COc1c(C)cc(-c2cc3c(c(CCc4ccccc4)n2)[Si](C(C)C)(C(C)C)O[C@H]3c2ccccc2)cc1C metric=z-score result=0.608

Any idea what its z-score is? The compound is Cc1ccc(S[C@]2(C(=O)NCc3ccccc3)CC(=O)N(Cc3ccccc3Cl)[C@@H]2c2ccc(CO)cc2)cc1 0.338

Any idea what its z-score is? The compound is C=CCNC(=O)[C@@H]1[C@H]2C(=O)O[C@H](c3ccccc3)[C@H](c3ccccc3)N2[C@H](c2ccc(O)cc2)[C@@]12C(=O)N(C(=O)OCCOC)c1ccc(C#CCC(C(=O)OC)C(=O)OC)cc12 0.089

Any idea what its z-score is? The compound is C=CCOC(=O)[C@H]1[C@@H]2C(=O)O[C@@H](c3ccccc3)[C@@H](c3ccccc3)N2[C@@H](c2ccc(OCCOC(=O)[C@H]3C[C@H]4C(=O)NCC(=O)N4[C@H]3c3ccc(O)cc3)cc2)[C@]12C(=O)Nc1ccccc12 0.916

Any idea what its z-score is? The compound is COCCCNC(=O)[C@@]1(CCC(=O)OC(C)(C)C)N=C(c2ccc(OCCCO)cc2)O[C@H]1c1ccccc1 -0.568

Any idea what its z-score is? The compound is COCCOC(=O)N1C(=O)[C@@]2(c3cc(C#CCNC(N)=O)ccc31)[C@H](C(=O)Nc1nc3ccccc3s1)[C@H]1C(=O)O[C@H](c3ccccc3)[C@H](c3ccccc3)N1[C@@H]2c1ccc(O)cc1 0.558

Any idea what its z-score is? The compound is CO[C@H]1O[C@H](CO)[C@@H](OC(=O)Nc2cccc(F)c2)[C@H](OC(=O)c2cc3ccccc3[nH]2)[C@H]1OC(=O)c1cc2ccccc2[nH]1 1.1

Any idea what its z-score is? The compound is CC(C)(C)OC(=O)CC[C@@]1(C(N)=O)N=C(c2ccc(OCCCO)cc2)O[C@@H]1c1ccccc1CN=[N+]=[N-] 0.122

Any idea what its z-score is? The compound is CC[C@@H](O[Si](C#C[Si](C(C)C)(C(C)C)C(C)C)(C(C)C)C(C)C)c1cn([C@H](C)c2ccccc2)nn1 0.596

Any idea what its z-score is? The compound is O=C(c1ccccc1)N1Cc2ccccc2C[C@@]2(N=C(c3ccc(OCCCO)cc3)O[C@H]2c2ccccc2)C1=O 1.49

The origin of these recorded values is PubChem BioAssay.
